- target_system: IDO1 (Homo sapiens)
- assay_notes: IDO1 Cellular Assay in Hela Cells Stimulated with IFNγ
- Assay type: cell-based
- experimental_setup: IFNγ 100 ng/mL, 300 uM L-tryptophan, about 48 hours, fluorescence readout, read-out: IDO1 HELA Cell Assay, IC50
pIC50: −log10 of the molar value.
Quick rule for you: pIC50 at 7 or higher means satisfied, lower means not satisfied.

Examples with answers:
CCOc1cccc(C(=O)NC23CC(C(C)C(=O)Nc4ccc(F)cc4)(C2)C3)n1 (centres unmarked)
not satisfied
CC(C(=O)Nc1ccc(F)cc1)C12CC(NC(=O)c3ccc(C(F)(F)F)cn3)(C1)C2 (centres unmarked)
not satisfied
Cc1nc(C(=O)NC23CC(C4(NC(=O)c5ccc(F)cc5)CC4)(C2)C3)no1
satisfied
CC(C(=O)Nc1ccc(F)cc1)C12CC(NC(=O)c3ccccn3)(C1)C2 (centres unmarked)
not satisfied
Cc1ccc(C(=O)NC23CC([C@H](C)C(=O)Nc4ccc(F)cc4)(C2)C3)nc1Cl
satisfied

Now for another entry.
Prompt: Evaluate CC(C(=O)Nc1ccc(F)cc1)C12CC(NC(=O)c3cccc(OC(F)(F)F)c3)(C1)C2 (centres unmarked) : pIC50 at minimum 7?
Completion: satisfied

----------
- target_system: IDO1 (Homo sapiens, UniProt P14902)
- Sequence (P14902 whole entry): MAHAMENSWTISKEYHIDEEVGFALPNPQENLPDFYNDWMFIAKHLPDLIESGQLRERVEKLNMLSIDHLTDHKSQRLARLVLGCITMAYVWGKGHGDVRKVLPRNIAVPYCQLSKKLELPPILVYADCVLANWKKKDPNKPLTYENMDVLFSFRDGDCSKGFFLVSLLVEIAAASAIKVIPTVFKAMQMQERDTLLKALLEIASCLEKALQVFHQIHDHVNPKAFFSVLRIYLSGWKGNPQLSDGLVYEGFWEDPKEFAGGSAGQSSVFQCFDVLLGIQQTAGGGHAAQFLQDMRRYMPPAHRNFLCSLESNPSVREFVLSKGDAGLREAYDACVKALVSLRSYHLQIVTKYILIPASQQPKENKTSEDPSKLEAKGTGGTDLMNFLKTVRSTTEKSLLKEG
- assay_notes: IDO1 Cellular Assay in Hela Cells Stimulated with IFNγ
- Format: cell-based
- experimental_setup: IFNγ 100 ng/mL, 300 uM L-tryptophan, about 48 hours, fluorescence readout, read-out: IDO1 HELA Cell Assay, IC50
Let's look at some compounds and their measured pIC50.
// pIC50: -log10(molar conc.)

C[C@H](C(=O)Nc1ccc(F)cc1)C12CC(NC(=O)c3ccc4cccnc4c3)(C1)C2
6.75

Prompt: API: value(readout=pIC50, system=IDO1 (Homo sapiens, UniProt P14902)) for record Cc1noc(C(=O)NC23CC(C(C)C(=O)Nc4ccc(F)cc4)(C2)C3)n1 (stereo not shown)
Completion: 7.22

Prompt: What pIC50 appears in the records for this compound with IDO1 (Homo sapiens, UniProt P14902)? CCc1cc(C(=O)NC23CC(C(C)C(=O)Nc4ccc(F)cc4)(C2)C3)n(C)n1 (stereo not shown)
Completion: 6.38

Prompt: Item: `Cc1ccc(C(=O)NC23CC([C@H](C)C(=O)Nc4ccc(F)cc4)(C2)C3)cc1F` Test system: IDO1 (Homo sapiens, UniProt P14902) Read-out: pIC50 Value: ?
Completion: 7.78

----------
- target_system: IDO1 (Homo sapiens)
- assay_notes: IDO1 Cellular Assay in Hela Cells Stimulated with IFNγ
- Format: cell-based
- experimental_setup: IFNγ 100 ng/mL, 300 uM L-tryptophan, about 48 hours, fluorescence readout, read-out: IDO1 HELA Cell Assay, IC50
The following compounds are shown together with reported IC50 values.
Please state the figure in nM; there is no need to write the unit.

Consider the following illustrative entries.
C[C@H](C(=O)Nc1ccc(F)cc1)C12CC(NC(=O)c3ccc(Cl)cc3F)(C1)C2 [Example 52]
2.5
CC(C(=O)Nc1ccc(Cl)nc1)C12CC(NC(=O)c3ccc4c(c3)CC4)(C1)C2 (stereo not shown) [Example 18]
2.91
CC(NC(=O)c1ccc(F)cc1)C12CC(NC(=O)c3ccc(Cl)c(Cl)c3)(C1)C2 (single isomer, unassigned) [Example 21]
908

--- query ---
Prompt: Name the recorded IC50 for Cc1cc(C(=O)NC23CC([C@@H](C)C(=O)Nc4ccc(F)cc4)(C2)C3)ccc1F [Example 39] .
Completion: 201

----------
- target_system: IDO1 (Homo sapiens)
- assay_notes: IDO1 Cellular Assay in Hela Cells Stimulated with IFNγ
- Format: cell-based
- experimental_setup: IFNγ 100 ng/mL, 300 uM L-tryptophan, about 48 hours, fluorescence readout, read-out: IDO1 HELA Cell Assay, IC50
- Method: Biological Assays IDO1 Cellular Assay in Hela Cells Stimulated with IFNγ Hela cells were cultured in complete Hela culture medium ([…], 10% heat-inactivated fetal bovine serum) and expanded to about 1×10^9 cells. […] Hela cells with and without IFNγ were dispensed to the respective wells of 384-well assay plates containing the compounds. […] The resulting fluorescence was measured in a Spectramax plate reader (Molecular Devices) with a 400 nm excitation filter and a 510 nm emission filter. […]
endpoint: IC50 (nM)
Lab book: enter the figure in nM, no units written.

In the examples that follow, each entry is paired with its recorded IC50.
C[C@H](C(=O)Nc1cnc(Cl)c(Cl)c1)C12CC(NC(=O)c3ccc(Cl)c(Cl)c3)(C1)C2
105
Cc1cc(C(=O)NC23CC([C@H](C)C(=O)Nc4ccc(F)cc4)(C2)C3)ccc1Cl
3.29
C[C@@H](C(=O)Nc1ccc(F)cc1)C12CC(NC(=O)c3cccc(Cl)c3F)(C1)C2
2
Cc1ccc(C(=O)NC23CC([C@H](C)C(=O)Nc4ccc(F)cc4)(C2)C3)nc1C
11.4
C[C@H](C(=O)Nc1ccc(F)cc1)C12CC(NC(=O)Nc3ccc(F)cc3)(C1)C2
73.2

Prompt: Which IC50 value is on record for `O=C(NC1(C23CC(NC(=O)c4nc(C5CC5)no4)(C2)C3)CC1)c1ccc(F)cc1` ?
Completion: 276

Prompt: Field request: IC50 | item: CCc1cc(C(=O)NC23CC(C(C)C(=O)Nc4ccc(F)cc4)(C2)C3)no1 (centres unmarked)
Completion: 17.7

Prompt: Would you mind telling me what IC50 value was observed for `C[C@H](C(=O)Nc1ccc(F)cc1)C12CC(NC(=O)c3ccc4ccccc4c3)(C1)C2` ?
Completion: 19.7

----------
Parameter: pIC50. Scope: all listed entries.
- target_system: UniProtKB P14902
- assay_notes: IDO1 Cellular Assay in Hela Cells Stimulated with IFNγ
- Format: cell-based
- experimental_setup: IFNγ 100 ng/mL, 300 uM L-tryptophan, about 48 hours, fluorescence readout, read-out: IDO1 HELA Cell Assay, IC50
Please note pIC50 is a logarithmic value: minus log10 of concentration in mol/L. Answer with that number alone.

Use these answered entries as a reference point.
CC(C)(C(=O)Nc1ccc(F)cc1)C12CC(NC(=O)c3cccc(Cl)c3)(C1)C2
7.72
CC(C(=O)Nc1ccc(F)cc1)C12CC(NC(=O)c3cnnc4ccccc34)(C1)C2 (stereo not shown)
6.56
O=C(NC12CC(C3(C(=O)Nc4ccc(F)cc4)CCC3)(C1)C2)c1ccc(Cl)c(Cl)c1
8.67

Read the next record carefully.
Prompt: Can you look up the measured pIC50 of `C[C@@H](C(=O)Nc1ccc(C(F)(F)F)cc1)C12CC(NC(=O)c3ccc(Cl)c(Cl)c3)(C1)C2` for me?
Completion: 8.19

----------
- target_system: UniProt:P14902
- assay_notes: IDO1 Cellular Assay in Hela Cells Stimulated with IFNγ
- Assay type: cell-based
- experimental_setup: IFNγ 100 ng/mL, 300 uM L-tryptophan, about 48 hours, fluorescence readout, read-out: IDO1 HELA Cell Assay, IC50
endpoint: IC50
Don't forget the unit after the value.

Record excerpt, results attached:
Cc1nc(C)c(C(=O)NC23CC(C(C)C(=O)Nc4ccc(F)cc4)(C2)C3)s1 (stereo not drawn)
318 nM
O=C(NC1(C23CC(NC(=O)c4ccc(C(F)(F)F)cn4)(C2)C3)CC1)c1ccc(F)cc1
377 nM
CC(NC(=O)c1ccc(F)cc1)C12CC(NC(=O)c3ccc(Cl)c(Cl)c3)(C1)C2 (single isomer, unassigned) [Example 22]
28.7 nM
O=C(NC12CC(C3(C(=O)Nc4ccc(F)cc4)CC3)(C1)C2)c1ccc(Cl)c(Cl)c1
3.35 nM
C[C@@H](C(=O)Nc1cnc(Cl)nc1)C12CC(NC(=O)c3ccc(Cl)c(Cl)c3)(C1)C2
118 nM

Let's switch to this compound now.
Prompt: Consider the compound `Cc1c(Cl)cccc1NC(=O)NC12CC([C@H](C)C(=O)Nc3ccc(F)cc3)(C1)C2` and give its measured IC50.
Completion: 77.2 nM

----------
- target_system: IDO1 (Homo sapiens)
- assay_notes: IDO1 Human whole blood Assay
- Assay type: cell-based
- Design: Human whole blood was drawn in sodium heparin coated tubes from healthy internal donors; from tissue; host or cells: Human whole blood from healthy donors, stimulated with LPS and IFNγ
- experimental_setup: LPS and IFNγ 100 ng/mL, 18 h, kynurenine by LC/MS/MS
# pIC50 values compiled below
Would you please state pIC50, meaning minus log10 of the concentration in mol/L, as a bare number?

Guide cases for pIC50, answers given:
C[C@H](C(=O)Nc1ccc(F)cc1)C12CC(NC(=O)c3cc(Cl)ccc3F)(C1)C2 [Example 56]
6.48
CC(C(=O)Nc1ccc(Cl)nc1)C12CC(NC(=O)c3ccc(Cl)c(Cl)c3)(C1)C2 (single isomer, unassigned) [Example 15]
5.96
O=C(NC12CC(C3(NC(=O)c4ccc(F)cc4)CC3)(C1)C2)c1ccc(Cl)c(Cl)c1 [Example 24]
6.40
CC(C(=O)Nc1ccc(F)nc1)C12CC(NC(=O)c3ccc(Cl)c(Cl)c3)(C1)C2 (single isomer, unassigned) [Example 14]
6.39
CC(C(=O)Nc1ccc(F)cc1)C12CC(NC(=O)c3ccc(Cl)c(Cl)c3)(C1)C2 (single isomer, unassigned) [Example 8]
6.11

Prompt: Data request, read-out pIC50, for CC(C(=O)Nc1ccc(Cl)c(F)c1)C12CC(NC(=O)c3cccc(Cl)c3)(C1)C2 (single isomer, unassigned) [Example 11]
Completion: 6.28

Prompt: Need pIC50, item CC(C(=O)Nc1ccc(F)cc1)C12CC(NC(=O)c3ccc(Cl)c(Cl)c3)(C1)C2 (single isomer, unassigned) [Example 9]
Completion: 6.03

Prompt: Could you share which pIC50 value was measured for C[C@H](C(=O)Nc1ccc(F)cc1)C12CC(NC(=O)OC3CCCC3)(C1)C2 [Example 77] ?
Completion: 6.34

Prompt: Look up pIC50 for this compound: Cc1ccc(C(=O)NC23CC([C@@H](C)C(=O)Nc4ccc(F)cc4)(C2)C3)cc1Cl [Example 36]
Completion: 6.86

Data provenance is patent US11478461B2.
